# Lookup of reported log10(EC50) keyed by entry
# system_name: Muscarinic acetylcholine receptor M1 (Homo sapiens)
# Sequence (P11229 whole entry): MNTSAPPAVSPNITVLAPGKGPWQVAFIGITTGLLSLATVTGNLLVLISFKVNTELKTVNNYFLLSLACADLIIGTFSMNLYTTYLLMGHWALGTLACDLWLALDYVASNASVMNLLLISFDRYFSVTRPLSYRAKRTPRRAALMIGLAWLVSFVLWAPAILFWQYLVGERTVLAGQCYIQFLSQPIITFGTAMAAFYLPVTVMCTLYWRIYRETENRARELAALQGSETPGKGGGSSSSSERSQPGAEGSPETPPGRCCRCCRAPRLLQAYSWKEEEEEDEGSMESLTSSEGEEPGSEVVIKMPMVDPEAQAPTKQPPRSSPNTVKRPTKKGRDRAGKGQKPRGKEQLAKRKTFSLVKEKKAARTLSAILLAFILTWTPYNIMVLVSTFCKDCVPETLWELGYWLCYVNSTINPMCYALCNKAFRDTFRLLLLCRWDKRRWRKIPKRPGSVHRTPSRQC
# measurement_notes: Effective concentration was evaluated against Muscarinic acetylcholine receptor M1 expressed in A9 L cells
reported_property: log10(EC50) (log10 of the value in nM)

compound	log10(EC50)
CN1CCC=C(c2nsnc2OCCCCCCCCCCCCO)C1	3.50
CN1CCC=C(c2nsnc2OCCOCCOCCOCCO)C1	2.80
COc1nsnc1OCCCCCCCCCCCCOc1nsnc1C1=CCCN(C)C1	2.60
CN1CCC=C(c2nsnc2OCCOCCOCCOCCOc2nsnc2C2=CCCN(C)C2)C1	0.90
COc1nsnc1OCCOCCOCCOCCOc1nsnc1C1=CCCN(C)C1	1.80
CC(=O)OCCCCCCCCCCCCOc1nsnc1C1=CCCN(C)C1	3.40
CCOCCOCCOCCOCCOc1nsnc1C1=CCCN(C)C1	3.80
